- experimental target: mouse KOR (Mus musculus, UniProt P33534)
pKi: −log10 of the molar value. Bridge positions count the residues as written; N and C are the ends. Peptide text beside a SMILES is read from it.
outcome measure: pKi

molecule: CC[C@H](C)[C@@H]1NC(=O)[C@@H]2CCCN2C(=O)[C@@H]2CCCN2C(=O)[C@H]([C@@H](C)CC)NC(=O)[C@H](CO)NC(=O)[C@H](C)NC(=O)[C@H]([C@@H](C)O)NC(=O)[C@@H]2CSSC[C@H](NC1=O)C(=O)N[C@@H](Cc1ccc(O)cc1)C(=O)NCC(=O)NCC(=O)N[C@@H](Cc1ccccc1)C(=O)N[C@@H](CC(C)C)C(=O)N[C@@H](CCCNC(=N)N)C(=O)N2 [helianorphin-7] (cyclo(ASIPPICYGGFLRCT); disulfide 7-14)
result: < 5.00

----------
Bridge positions count the residues as written; N and C are the ends. Square brackets hold non-standard residues; d marks the D form. Peptide text beside a SMILES is read from it.
This document collects Ki values reported for mouse KOR (Mus musculus).

compound: CC(C)C[C@@H]1NC(=O)[C@H](Cc2ccccc2)NC(=O)CNC(=O)CNC(=O)[C@H](Cc2ccc(O)cc2)NC(=O)[C@H]([C@@H](C)O)NC(=O)[C@@H]2CSSC[C@H](NC(=O)[C@H](CCCNC(=N)N)NC1=O)C(=O)N[C@@H](Cc1ccccc1)C(=O)N1CCC[C@H]1C(=O)N[C@@H](CC(=O)O)C(=O)NCC(=O)N[C@@H](CCCNC(=N)N)C(=O)N2 [helianorphin-6] (cyclo(CFPDGRCTYGGFLR); disulfide 1-7)
Ki: > 10 µM
--
compound: CC[C@H](C)[C@@H]1NC(=O)[C@@H]2CCCN2C(=O)[C@@H](CCCCN)NC(=O)[C@@H](CC(C)C)NC(=O)[C@@H](Cc2ccccc2)NC(=O)[C@@H](Cc2ccccc2)NC(=O)[C@H]([C@@H](C)O)NC(=O)[C@@H]2CSSC[C@H](NC1=O)C(=O)N[C@@H](Cc1ccccc1)C(=O)N1CCC[C@H]1C(=O)N[C@@H](CC(=O)O)C(=O)NCC(=O)N[C@@H](CCCNC(=N)N)C(=O)N2 [helianorphin-10] (cyclo(CFPDGRCT[dF][dF][dL][dK]PI); disulfide 1-7)
Ki: > 10 µM
--
compound: CC[C@H](C)[C@@H]1NC(=O)[C@H](CCCNC(=N)N)NC(=O)[C@H](CC(C)C)NC(=O)[C@H](Cc2ccccc2)NC(=O)CNC(=O)CNC(=O)[C@H](Cc2ccc(O)cc2)NC(=O)[C@@H]2CSSC[C@H](NC1=O)C(=O)N[C@@H](Cc1ccccc1)C(=O)N1CCC[C@H]1C(=O)N[C@@H](CC(=O)O)C(=O)NCC(=O)N[C@@H](CCCNC(=N)N)C(=O)N2 [helianorphin-5] (cyclo(CFPDGRCYGGFLRI); disulfide 1-7)
Ki: > 10 µM

----------
- experimental target: mouse KOR (Mus musculus)
- experimental protocol: Functional cAMP assay
- Format: cell-based
- measurement setup: normalized to dyn A 1–13 = 100%; read-out: efficacy cAMP Emax ± SD
Bridge positions count the residues as written; N and C are the ends. Peptide text beside a SMILES is read from it.
Mark 1 (yes) for reported Emax of 90% or greater; mark 0 (no) for anything smaller.

compound: CCCC[C@H]1NC(=O)[C@@H](Cc2ccccc2)NC(=O)[C@@H](Cc2ccccc2)NC(=O)[C@H]([C@@H](C)O)NC(=O)[C@@H]2CSSC[C@H](NC(=O)[C@H]([C@@H](C)CC)NC(=O)[C@@H]3CCCN3C(=O)[C@@H](CCCNC(=N)N)NC1=O)C(=O)N[C@@H](Cc1ccccc1)C(=O)N1CCC[C@H]1C(=O)N[C@@H](CC(=O)O)C(=O)NCC(=O)N[C@@H](CCCNC(=N)N)C(=O)N2
label value: 1 (yes)
--
compound: CC[C@H](C)[C@@H]1NC(=O)[C@H](CCCNC(=N)N)NC(=O)[C@H](CCCNC(=N)N)NC(=O)[C@H](CC(C)C)NC(=O)[C@H](Cc2ccccc2)NC(=O)CNC(=O)CNC(=O)[C@H](Cc2ccc(O)cc2)NC(=O)[C@@H]2CSSC[C@H](NC1=O)C(=O)N[C@@H](Cc1ccccc1)C(=O)N1CCC[C@H]1C(=O)N[C@@H](CC(=O)O)C(=O)NCC(=O)N[C@@H](CCCNC(=N)N)C(=O)N2
label value: 0 (no)
--
compound: CC[C@H](C)[C@@H]1NC(=O)[C@@H]2CSSC[C@H](NC(=O)[C@H](CCCCN)NC(=O)[C@H](CC(C)C)NC(=O)[C@H](CCCCN)NC(=O)[C@@H]3CCCN3C(=O)[C@H](CCCNC(=N)N)NC1=O)C(=O)N[C@@H](Cc1ccc(O)cc1)C(=O)NCC(=O)NCC(=O)N[C@@H](Cc1ccccc1)C(=O)N[C@@H](CC(C)C)C(=O)N[C@@H](CCCNC(=N)N)C(=O)N[C@@H](CCCNC(=N)N)C(=O)N2 [helianorphin-19] (cyclo(CIRPKLKCYGGFLRR); disulfide 1-8)
label value: 1 (yes)
--
compound: CC[C@H](C)[C@@H]1NC(=O)[C@H](CCCNC(=N)N)NC(=O)[C@H](CCCNC(=N)N)NC(=O)[C@H](CC(C)C)NC(=O)[C@H](Cc2ccccc2)NC(=O)CNC(=O)CNC(=O)[C@H](Cc2ccc(O)cc2)NC(=O)[C@@H]2CSSC[C@H](NC(=O)[C@H](CCCCN)NC(=O)[C@H](CC(C)C)NC(=O)[C@H](CCCCN)NC(=O)[C@@H]3CCCN3C(=O)[C@H](CCCNC(=N)N)NC1=O)C(=O)N[C@@H](Cc1ccccc1)C(=O)N1CCC[C@H]1C(=O)N[C@@H](CC(=O)O)C(=O)NCC(=O)N[C@@H](CCCNC(=N)N)C(=O)N2
label value: 1 (yes)
